procedure.text: Serum stability in mouse serum (RP-HPLC)
Type: in vitro ADME
stated.conditions: 25% mouse serum, peptide 0.5 mM, 0.5 h, mean of three, read-out: remaining rate in mouse serum
Residues, ends and D or L forms follow the SMILES beside them.
quantity.name: remaining at 0.5 h, 0.5 mM (%)
Number in %, nothing else.

INPUT: Find the recorded remaining at 0.5 h, 0.5 mM belonging to CSCC[C@H](NC(=O)[C@H](CCCNC(=N)N)NC(=O)[C@H](Cc1c[nH]c2ccccc12)NC(=O)[C@H](C)NC(=O)[C@H](Cc1c[nH]c2ccccc12)NC(=O)[C@H](CCCNC(=N)N)NC(=O)[C@H](Cc1c[nH]c2ccccc12)NC(=O)[C@H](C)NC(=O)[C@H](CCCCN)NC(=O)[C@@H](N)Cc1ccccc1)C(=O)N[C@@H](CCCCN)C(=O)N[C@@H](CCCCN)C(=O)N[C@@H](CC(C)C)C(=O)N[C@@H](C)C(=O)N[C@@H](C)C(=O)N1CCC[C@H]1C(=O)N[C@@H](CO)C(=O)O [L7] (H-FKAWRWAWRMKKLAAPS-OH) and report it.
OUTPUT: 74.5

---

procedure.text: in vitro
Assay type: in vitro ADME
stated.conditions: Supplementary Fig. 2b source data; human serum; 8 h; RP-HPLC; mean; read-out: remaining rate in human serum
Residues, ends and D or L forms follow the SMILES beside them.
quantity.name: remaining at 8 h, 0.5 mM
Report field: quantity (unit follows the number).

INPUT: Quick check: remaining at 8 h, 0.5 mM of CSCC[C@H](NC(=O)[C@H](CCCNC(=N)N)NC(=O)[C@H](Cc1c[nH]c2ccccc12)NC(=O)[C@H](C)NC(=O)[C@H](Cc1c[nH]c2ccccc12)NC(=O)[C@H](CCCNC(=N)N)NC(=O)[C@H](Cc1c[nH]c2ccccc12)NC(=O)[C@H](C)NC(=O)[C@H](CCCCN)NC(=O)[C@@H](N)Cc1ccccc1)C(=O)N[C@@H](CCCCN)C(=O)N[C@@H](CCCCN)C(=O)N[C@@H](CC(C)C)C(=O)N[C@@H](C)C(=O)N[C@@H](C)C(=O)N1CCC[C@H]1C(=O)N[C@@H](CO)C(=O)O [L7] (H-FKAWRWAWRMKKLAAPS-OH) ?
OUTPUT: 0.839%

---

procedure.text: in vitro
Type: in vitro ADME
stated.conditions: Supplementary Fig. 2b source data; human serum; 1 h; RP-HPLC; mean; read-out: remaining rate in human serum
Residues, ends and D or L forms follow the SMILES beside them.
quantity.name: remaining at 1 h, 0.5 mM (%)
The response must be a number in % with no trailing unit.

INPUT: Please look up its remaining at 1 h, 0.5 mM: CSCC[C@H](NC(=O)[C@H](CCCNC(=N)N)NC(=O)[C@H](Cc1c[nH]c2ccccc12)NC(=O)[C@H](C)NC(=O)[C@H](Cc1c[nH]c2ccccc12)NC(=O)[C@H](CCCNC(=N)N)NC(=O)[C@H](Cc1c[nH]c2ccccc12)NC(=O)[C@H](C)NC(=O)[C@H](CCCCN)NC(=O)[C@@H](N)Cc1ccccc1)C(=O)N[C@@H](CCCCN)C(=O)N[C@@H](CCCCN)C(=O)N[C@@H](CC(C)C)C(=O)N[C@@H](C)C(=O)N[C@@H](C)C(=O)N1CCC[C@H]1C(=O)N[C@@H](CO)C(=O)O [L7] (H-FKAWRWAWRMKKLAAPS-OH)
OUTPUT: 51.4
